- Target entity: Proto-oncogene tyrosine-protein kinase Src (Homo sapiens)
- Assay protocol: Inhibition of human recombinant Src at 100 nM in presence of [gamma33P]ATP by radiometric assay relative to control
Recorded metric: inhibition (%)
Give bare numbers, in %.

- Smiles text: "C=CC(=O)NCCNc1c(NCc2ccc(Nc3ncc(Cl)c(NCc4cccnc4N(C)S(C)(=O)=O)n3)cc2)c(=O)c1=O"
  Test value: 17.9

Quick one: give me inhibition for each item below, same order please.
1. C=CC(=O)NCCNc1c(NCc2ccc(Nc3ncc(C(F)(F)F)c(Nc4ccccc4C(=O)NC)n3)cc2)c(=O)c1=O
2. C=CC(=O)NCCNc1c(NCc2ccc(Nc3ncc(Cl)c(Nc4ccccc4C(=O)NC)n3)cc2)c(=O)c1=O
3. CNC(=O)c1ccccc1Nc1nc(Nc2ccc(CNc3c(NCCNC(=O)/C(C#N)=C/C(C)C)c(=O)c3=O)cc2)ncc1Cl

1: 55.6; 2: 52.1; 3: 31.1

---

Give measured inhibition for each item. Keep answers brief.
- Target entity: Epidermal growth factor receptor (Homo sapiens)
- Assay protocol: Inhibition of human recombinant EGFR at 100 nM in presence of [gamma33P]ATP by radiometric assay relative to control
Numbers only, in %.

Below, 3 compounds whose answers are already recorded.
- Smiles text: "CNC(=O)c1ccccc1Nc1nc(Nc2ccc(CNc3c(NCCNC(=O)/C(C#N)=C/C(C)C)c(=O)c3=O)cc2)ncc1Cl"
  inhibition [%]: 25.1
- Smiles text: "C=CC(=O)NCCNc1c(NCc2ccc(Nc3ncc(Cl)c(Nc4ccccc4C(=O)NC)n3)cc2)c(=O)c1=O"
  inhibition [%]: 47.2
- Smiles text: "C=CC(=O)NCCNc1c(NCc2ccc(Nc3ncc(Cl)c(NCc4cccnc4N(C)S(C)(=O)=O)n3)cc2)c(=O)c1=O"
  inhibition [%]: 1.2

Next, consider the following compound.
For `C=CC(=O)NCCNc1c(NCc2ccc(Nc3ncc(C(F)(F)F)c(Nc4ccccc4C(=O)NC)n3)cc2)c(=O)c1=O` , what is its reported inhibition? 29

---

- Target entity: Insulin-like growth factor 1 receptor (Homo sapiens)
- Assay protocol: Inhibition of human recombinant IGF1R at 100 nM by [gamma-33ATP] radiometric assay relative to control
Give measured inhibition for each item. Keep answers brief.
One number for each entry, in %.

Below, 3 compounds whose answers are already recorded.
- Smiles text: "C=CC(=O)NCCNc1c(NCc2ccc(Nc3ncc(Cl)c(Nc4ccccc4C(=O)NC)n3)cc2)c(=O)c1=O"
  inhibition / %: 91.5
- Smiles text: "C=CC(=O)NCCNc1c(NCc2ccc(Nc3ncc(C(F)(F)F)c(Nc4ccccc4C(=O)NC)n3)cc2)c(=O)c1=O"
  inhibition / %: 94.4
- Smiles text: "CNC(=O)c1ccccc1Nc1nc(Nc2ccc(CNc3c(NCCNC(=O)/C(C#N)=C/C(C)C)c(=O)c3=O)cc2)ncc1Cl"
  inhibition / %: 71.9

Next, consider the following compound.
For `C=CC(=O)NCCNc1c(NCc2ccc(Nc3ncc(Cl)c(NCc4cccnc4N(C)S(C)(=O)=O)n3)cc2)c(=O)c1=O` , what is its reported inhibition? 28.1

---

- Target entity: Focal adhesion kinase 1 (Homo sapiens)
- Sequence (Q05397 2-1052 limits assumed): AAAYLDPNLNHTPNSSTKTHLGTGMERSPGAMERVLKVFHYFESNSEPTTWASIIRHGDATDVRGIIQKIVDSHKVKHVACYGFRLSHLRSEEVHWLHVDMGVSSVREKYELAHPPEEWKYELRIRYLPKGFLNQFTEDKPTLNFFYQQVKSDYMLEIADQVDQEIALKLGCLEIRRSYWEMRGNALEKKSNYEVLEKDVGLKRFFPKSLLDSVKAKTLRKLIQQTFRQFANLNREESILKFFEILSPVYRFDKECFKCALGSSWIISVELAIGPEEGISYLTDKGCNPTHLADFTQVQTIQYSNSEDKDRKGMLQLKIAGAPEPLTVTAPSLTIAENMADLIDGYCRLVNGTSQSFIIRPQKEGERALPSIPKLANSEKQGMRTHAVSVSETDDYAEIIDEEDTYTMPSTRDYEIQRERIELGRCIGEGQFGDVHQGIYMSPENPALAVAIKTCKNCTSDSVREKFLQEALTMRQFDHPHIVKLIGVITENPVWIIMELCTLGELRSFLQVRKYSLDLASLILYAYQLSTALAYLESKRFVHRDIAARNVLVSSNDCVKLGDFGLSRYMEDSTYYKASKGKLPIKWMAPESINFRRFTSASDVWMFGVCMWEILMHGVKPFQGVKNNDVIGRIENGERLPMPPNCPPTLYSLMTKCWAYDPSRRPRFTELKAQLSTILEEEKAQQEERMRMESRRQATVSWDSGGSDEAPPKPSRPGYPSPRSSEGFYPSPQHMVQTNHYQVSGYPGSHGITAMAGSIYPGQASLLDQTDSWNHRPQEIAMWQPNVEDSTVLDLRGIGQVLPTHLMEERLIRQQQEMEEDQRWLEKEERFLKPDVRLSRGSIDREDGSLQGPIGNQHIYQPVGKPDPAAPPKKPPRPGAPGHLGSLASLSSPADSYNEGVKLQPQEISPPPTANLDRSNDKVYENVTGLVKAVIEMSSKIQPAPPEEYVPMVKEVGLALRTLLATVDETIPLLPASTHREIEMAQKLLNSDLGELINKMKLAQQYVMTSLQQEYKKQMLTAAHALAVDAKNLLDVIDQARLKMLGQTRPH
- Assay protocol: Inhibition of human recombinant FAK at 100 nM by [gamma32P]-ATP radiometric analysis relative to control
Recorded metric: inhibition (%)
Give bare numbers, in %.

- Smiles text: "C=CC(=O)NCCNc1c(NCc2ccc(Nc3ncc(Cl)c(Nc4ccccc4C(=O)NC)n3)cc2)c(=O)c1=O"
  Test value: 98.1
- Smiles text: "CNC(=O)c1ccccc1Nc1nc(Nc2ccc(CNc3c(NCCNC(=O)/C(C#N)=C/C(C)C)c(=O)c3=O)cc2)ncc1Cl"
  Test value: 94.1
- Smiles text: "C=CC(=O)NCCNc1c(NCc2ccc(Nc3ncc(Cl)c(NCc4cccnc4N(C)S(C)(=O)=O)n3)cc2)c(=O)c1=O"
  Test value: 92.2

For `C=CC(=O)NCCNc1c(NCc2ccc(Nc3ncc(C(F)(F)F)c(Nc4ccccc4C(=O)NC)n3)cc2)c(=O)c1=O` , what is its reported inhibition? 98.6
